FYI, the data here is from PubChem BioAssay AID2060342.

- Test system: 171881-019-R-J1-PDC multicell spheroid viability
- ASSAY_NOTES: Anticancer human tumor 171881-019-R-J1-PDC patient-derived invasive breast carcinoma cell line growth inhibition [IpAb]
- EXPERIMENTAL_CONTEXT: second compound 1 µM; first compound 0.00316 µM; stronger effect = lower value
viability, T/C less than 90% is YES; viability, T/C greater than or equal to 90% is NO.

Hello, is viability, T/C of the following compound strictly smaller than 90%? Cn1ncnc1[C@H]1c2n[nH]c(=O)c3cc(F)cc(c23)N[C@@H]1c1ccc(F)cc1 + CCN1CCN(Cc2ccc(Nc3ncc(F)c(-c4cc(F)c5nc(C)n(C(C)C)c5c4)n3)nc2)CC1 NO

Continuing:
Hello, is viability, T/C of the following compound strictly smaller than 90%? Cn1ncnc1[C@H]1c2n[nH]c(=O)c3cc(F)cc(c23)N[C@@H]1c1ccc(F)cc1 + CC(C)NCC(C(=O)N1CCN(c2ncnc3c2C(C)CC3O)CC1)c1ccc(Cl)cc1 YES

Hello, is viability, T/C of the following compound strictly smaller than 90%? CC(C)n1nc(-c2ccc3oc(N)nc3c2)c2c(N)ncnc21 + CC(C)NCC(C(=O)N1CCN(c2ncnc3c2C(C)CC3O)CC1)c1ccc(Cl)cc1 YES

Hello, is viability, T/C of the following compound strictly smaller than 90%? COc1c(OCCCN2CCOCC2)ccc2c3n(c(=NC(=O)c4cnc(N)nc4)nc12)CCN3 + CC(C)NCC(C(=O)N1CCN(c2ncnc3c2C(C)CC3O)CC1)c1ccc(Cl)cc1 YES

Hello, is viability, T/C of the following compound strictly smaller than 90%? COc1c(OCCCN2CCOCC2)ccc2c3n(c(=NC(=O)c4cnc(N)nc4)nc12)CCN3 + CCN1CCN(Cc2ccc(Nc3ncc(F)c(-c4cc(F)c5nc(C)n(C(C)C)c5c4)n3)nc2)CC1 NO

====

- Test system: 171881-019-R-J1-PDC multicell spheroid viability
- ASSAY_NOTES: Anticancer human tumor 171881-019-R-J1-PDC cell line growth inhibition [IpAb];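 further: spheroids exposed to the agents for seven days before readout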
- EXPERIMENTAL_CONTEXT: curve of first compound; second compound 0.0316 µM
- Protocol: Combinatorial screen of targeted agents with ipatasertib and abemaciclib in multi-cell type tumor spheroids […] Compounds. […] If the clinical Cmax for an agent had not been determined, the highest concentration tested was 10 microM. NCI60 Cell Culture. […] The optimal seeding densities for each of the cell lines at each time point assessed were determined prior to performing the concentration response studies. […]
// values below are reported pIC50
Units for pIC50: none; it is -log10 of a concentration expressed in mol/L.

Look up pIC50: Cn1ncc(Cl)c1-c1cc(C(=O)NC(CN)Cc2cccc(F)c2)sc1Cl (stereo not drawn) + CCN1CCN(Cc2ccc(Nc3ncc(F)c(-c4cc(F)c5nc(C)n(C(C)C)c5c4)n3)nc2)CC1 6.75

# evaluate next
Look up pIC50: Cn1nccc1Nc1nccc(-c2ccn(C(CO)c3ccc(Cl)c(F)c3)c(=O)c2)n1 (stereo not drawn) + CCN1CCN(Cc2ccc(Nc3ncc(F)c(-c4cc(F)c5nc(C)n(C(C)C)c5c4)n3)nc2)CC1 6.09

====

- Tested on: 171881-019-R-J1-PDC multicell spheroid viability
- ASSAY_NOTES: Anticancer human tumor 171881-019-R-J1-PDC cell line growth inhibition [IpAb];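 further: spheroids exposed to the agents for seven days before readout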
- EXPERIMENTAL_CONTEXT: second compound 1 µM; first compound 0.316 µM; stronger effect = lower value
// values below are reported viability, T/C

Here are 3 compounds together with their reported answers.
Look up viability, T/C: CC1(C)CCC(CN2CCN(c3ccc(C(=O)NS(=O)(=O)c4ccc(NCC5CCOCC5)c([N+](=O)[O-])c4)c(Oc4cnc5[nH]ccc5c4)c3)CC2)=C(c2ccc(Cl)cc2)C1 + CC(C)NCC(C(=O)N1CCN(c2ncnc3c2C(C)CC3O)CC1)c1ccc(Cl)cc1 34.8%

Look up viability, T/C: CC1(C)CCC(CN2CCN(c3ccc(C(=O)NS(=O)(=O)c4ccc(NCC5CCOCC5)c([N+](=O)[O-])c4)c(Oc4cnc5[nH]ccc5c4)c3)CC2)=C(c2ccc(Cl)cc2)C1 + CCN1CCN(Cc2ccc(Nc3ncc(F)c(-c4cc(F)c5nc(C)n(C(C)C)c5c4)n3)nc2)CC1 136%

Look up viability, T/C: C=CCn1c(=O)c2cnc(Nc3ccc(N4CCN(C)CC4)cc3)nc2n1-c1cccc(C(C)(C)O)n1 + CC(C)NCC(C(=O)N1CCN(c2ncnc3c2C(C)CC3O)CC1)c1ccc(Cl)cc1 16.5%

# evaluate next
Look up viability, T/C: C=CCn1c(=O)c2cnc(Nc3ccc(N4CCN(C)CC4)cc3)nc2n1-c1cccc(C(C)(C)O)n1 + CCN1CCN(Cc2ccc(Nc3ncc(F)c(-c4cc(F)c5nc(C)n(C(C)C)c5c4)n3)nc2)CC1 149%
